The reported numbers originate from ChEMBL document CHEMBL1132020.

Molecular target: UniProtKB P62993
Experiment: Inhibition of Grb-SH2 domain binding to phosphorylated carboxy-terminal intracellular domain of epidermal growth factor receptor
Mark class 1 only for IC50 values smaller than 10 nM; exact matches and larger values are class 0.

Reference set (5 entries):
1) COc1ccc2c(CCCNC(=O)[C@H](CC(N)=O)NC(=O)C3(NC(=O)[C@H](Cc4ccc(CP(=O)(O)O)cc4)NC(C)=O)CCCCC3)c[nH]c2c1 :: class 0
2) CC(=O)N[C@@H](Cc1ccc(CP(=O)(O)O)cc1)C(=O)NC1(C(=O)N[C@@H](CC(N)=O)C(=O)NCCCn2ccc3cc(Cl)ccc32)CCCCC1 :: class 0
3) COc1ccc2c(ccn2CCCNC(=O)[C@H](CC(N)=O)NC(=O)C2(NC(=O)[C@H](Cc3ccc(CP(=O)(O)O)cc3)NC(C)=O)CCCCC2)c1 :: class 1
4) CC(=O)N[C@@H](Cc1ccc(CP(=O)(O)O)cc1)C(=O)NC1(C(=O)N[C@@H](CC(N)=O)C(=O)NCCCc2c[nH]c3ccccc23)CCCCC1 :: class 0
5) CC(=O)N[C@@H](Cc1ccc(CP(=O)(O)O)cc1)C(=O)NC1(C(=O)N[C@@H](CC(N)=O)C(=O)NCCCn2ccc3cc(C)ccc32)CCCCC1 :: class 1

(Q) Please check: IC50 for "CC(=O)N[C@@H](Cc1ccc(CP(=O)(O)O)cc1)C(=O)NC1(C(=O)N[C@@H](CC(N)=O)C(=O)NCCCn2ccc3cc(O)ccc32)CCCCC1" , strictly under 10 nM or not?
(A) class 1

----------
Molecular target: Growth factor receptor-bound protein 2 (Homo sapiens, UniProt P62993)
Sequence (P62993 whole entry, the tested form may be a part): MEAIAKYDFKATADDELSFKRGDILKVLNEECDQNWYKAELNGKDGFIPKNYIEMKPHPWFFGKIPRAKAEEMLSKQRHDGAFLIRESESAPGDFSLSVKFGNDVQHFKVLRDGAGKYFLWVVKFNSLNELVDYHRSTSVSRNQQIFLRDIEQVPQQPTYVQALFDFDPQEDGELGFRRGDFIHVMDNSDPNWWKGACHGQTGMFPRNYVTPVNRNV
Test: Inhibition of Grb-SH2 domain binding to phosphorylated carboxy-terminal intracellular domain of epidermal growth factor receptor
Type: cell-based
pIC50: −log10 of the molar value.
The threshold is inclusive: pIC50 of exactly 8 counts as rule met; values below receive rule not met.

Reference set (2 entries):
1) CC(=O)N[C@@H](Cc1ccc(CP(=O)(O)O)cc1)C(=O)NC1(C(=O)N[C@@H](CC(N)=O)C(=O)NCCCn2ccc3ccccc32)CCCCC1 :: rule met
2) CC(=O)N[C@@H](Cc1ccc(CP(=O)(O)O)cc1)C(=O)NC1(C(=O)N[C@@H](CC(N)=O)C(=O)NCCCn2ccc3cc(N(C)C)ccc32)CCCCC1 :: rule met

Proceed to the following item.
(Q) Reported pIC50 at or above 8? "CC(=O)N[C@@H](Cc1ccc(CP(=O)(O)O)cc1)C(=O)NC1(C(=O)N[C@@H](CC(N)=O)C(=O)NCCCn2cc(C)c3ccccc32)CCCCC1"
(A) rule not met
